test: 5-day cytotoxicity assay with Cell Titer Glo readout, MRC5; assay type: cell-based; details: human
Give measured CC50 at 5 day for each item. Keep answers brief.
Answers are plain numbers, in µM.

Use these answered entries as a reference point.
> print(dat)
                                inputsmiles   quantitykind  unitslabel  resultnumber
1  COc1cc2c(cc1Cc1cccc(Cl)c1F)c(=O)c(C(=O)O)cn2[C@H](CO)C(C)C  CC50 at 5 day          µM          14.3
2  COc1ccc(C[C@H](N)C(=O)N[C@H]2[C@@H](O)[C@H](n3cnc4c(N(C)C)ncnc43)O[C@@H]2CO)cc1  CC50 at 5 day          µM          0.31
3  C[C@H]1CO[C@@H]2Cn3cc(C(=O)NCc4ccc(F)cc4F)c(=O)c(O)c3C(=O)N12  CC50 at 5 day          µM          28.1

Shifting focus to the compound that follows.
Quote CC50 at 5 day reported for C[C@@H]1CCO[C@H]2Cn3cc(C(=O)NCc4ccc(F)cc4F)c(=O)c(O)c3C(=O)N12 please.
38.2

====

experiment: 5-day cytotoxicity assay with Cell Titer Glo readout, GALPC3; assay type: cell-based; conditions: human; GALPC3, 5-day, Cell Titer Glo; read-out: CC50
quantityKind: CC50 at 5 day

Quote CC50 at 5 day reported for Cc1nnc(C(=O)NC(C)(C)c2nc(C(=O)NCc3ccc(F)cc3)c(O)c(=O)n2C)o1 please.
> 44.4 µM

====

assay: 5-day cytotoxicity assay with Cell Titer Glo readout, MRC5; assay type: cell-based; conditions: human; MRC5, 5-day, Cell Titer Glo; read-out: CC50
quantityKind: CC50 at 5 day

Quote CC50 at 5 day reported for Cc1nnc(C(=O)NC(C)(C)c2nc(C(=O)NCc3ccc(F)cc3)c(O)c(=O)n2C)o1 please.
> 44.4 µM

====

assay: 5-day cytotoxicity assay with Cell Titer Glo readout, GALHEPG2; assay type: cell-based; conditions: human
quantityKind: CC50 at 5 day (µM)
Answers are plain numbers, in µM.

Use these answered entries as a reference point.
> print(dat)
                                   molecule   quantitykind  resultnumber
1  COc1cc2c(cc1Cc1cccc(Cl)c1F)c(=O)c(C(=O)O)cn2[C@H](CO)C(C)C [EVG, elvitegravir]  CC50 at 5 day          9.02
2  C[C@H]1CO[C@@H]2Cn3cc(C(=O)NCc4ccc(F)cc4F)c(=O)c(O)c3C(=O)N12 [CAB, cabotegravir]  CC50 at 5 day          37.9
3  O=C(NCc1c(F)cc(F)cc1F)c1cn2c(c(O)c1=O)C(=O)N1[C@H]3CC[C@H](C3)O[C@@H]1C2 [BIC, bictegravir]  CC50 at 5 day          17.4

Shifting focus to the molecule that follows.
Quote CC50 at 5 day reported for COc1ccc(C[C@H](N)C(=O)N[C@H]2[C@@H](O)[C@H](n3cnc4c(N(C)C)ncnc43)O[C@@H]2CO)cc1 [Puromycin] please.
0.41

====

test: 5-day cytotoxicity assay with Cell Titer Glo readout, PBMC; type: cell-based; conditions: CC50
quantityKind: log10 CC50 at 5 day (log10 of the value in µM)
Please note: log10 values; quantity CC50 at 5 day; unit µM.

> print(dat)
                                   compound         quantitykind  resultnumber
1  COc1ccc(C[C@H](N)C(=O)N[C@H]2[C@@H](O)[C@H](n3cnc4c(N(C)C)ncnc43)O[C@@H]2CO)cc1 [Puromycin]  log10 CC50 at 5 day         -0.27
2  C[C@@H]1CCO[C@H]2Cn3cc(C(=O)NCc4ccc(F)cc4F)c(=O)c(O)c3C(=O)N12 [DTG, dolutegravir]  log10 CC50 at 5 day          1.45
3  O=C(NCc1c(F)cc(F)cc1F)c1cn2c(c(O)c1=O)C(=O)N1[C@H]3CC[C@H](C3)O[C@@H]1C2 [BIC, bictegravir]  log10 CC50 at 5 day          1.45
4  COc1cc2c(cc1Cc1cccc(Cl)c1F)c(=O)c(C(=O)O)cn2[C@H](CO)C(C)C [EVG, elvitegravir]  log10 CC50 at 5 day          1.16

Shifting focus to the compound that follows.
Quote log10 CC50 at 5 day reported for C[C@H]1CO[C@@H]2Cn3cc(C(=O)NCc4ccc(F)cc4F)c(=O)c(O)c3C(=O)N12 [CAB, cabotegravir] please.
1.48

Taken from paper PMC11705955.
